biological target: EBOV NP (amino acids 36–351) (Zaire ebolavirus, UniProt P18272); format: binding, Ebola virus
Sequence (P18272 36-351 limits assumed): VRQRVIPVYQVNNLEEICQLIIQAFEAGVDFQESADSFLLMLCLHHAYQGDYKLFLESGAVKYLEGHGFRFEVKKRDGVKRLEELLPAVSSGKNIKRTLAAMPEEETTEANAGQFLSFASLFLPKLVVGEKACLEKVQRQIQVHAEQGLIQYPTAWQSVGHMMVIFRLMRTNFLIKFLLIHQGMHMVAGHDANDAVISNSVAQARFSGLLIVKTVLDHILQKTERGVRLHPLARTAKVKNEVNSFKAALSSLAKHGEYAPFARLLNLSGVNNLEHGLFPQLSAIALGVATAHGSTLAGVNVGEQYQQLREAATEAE
Mark satisfied only when VIP stays strictly below 1. Values equal to the cut-off are not satisfied.

INSERT INTO measurements (compound, assigned_label) VALUES
  ('O=C(/C=C/c1ccc(O[C@@H]2O[C@H](CO)[C@@H](O)[C@H](O)[C@H]2O)cc1)c1ccc(O)cc1O', 'not satisfied'),
  ('O=c1cc(-c2ccc(O)cc2)oc2c([C@@H]3OC[C@H](O)[C@H](O)[C@H]3O)c(O)c([C@@H]3O[C@H](CO)[C@@H](O)[C@H](O)[C@H]3O)c(O)c12 [GC3, Schaftoside]', 'satisfied'),
  ('C=CC(C)(C)c1cc(/C=C/C(=O)c2ccc(O)cc2)c(OC)cc1O', 'not satisfied'),
  ('O=C(/C=C/c1ccc(O)cc1)c1ccc(O[C@@H]2O[C@H](CO)[C@@H](O)[C@H](O)[C@H]2O)cc1O', 'not satisfied'),
  ('O=C1C[C@@H](c2ccc(O)cc2)Oc2cc(O)ccc21', 'satisfied'),
  ('COc1ccc(-c2coc3cc(O[C@@H]4O[C@H](CO)[C@@H](O)[C@H](O)[C@H]4O)ccc3c2=O)cc1', 'not satisfied'),
  ('COc1ccc(-c2coc3cc(O)ccc3c2=O)cc1O', 'satisfied');

Shifting focus to the compound that follows.
Decide: VIP of CC1(C)[C@@H](O[C@H]2O[C@H](C(=O)O)[C@@H](O)[C@H](O)[C@H]2O[C@@H]2O[C@H](C(=O)O)[C@@H](O)[C@H](O)[C@H]2O)CC[C@]2(C)[C@H]3C(=O)C=C4[C@@H]5C[C@@](C)(C(=O)O)CC[C@]5(C)CC[C@@]4(C)[C@]3(C)CC[C@@H]12 strictly below 1?
not satisfied
